Ref: patent US20250257130A1

Biological target: T1, Human ROR1-ECD-his (Acro Biosystems RO1-H522y) (human, UniProt Q01973 30-406)
T1 construct: extracellular domain; bought protein; also called hROR1-ECD-his; hu-ROR1-ECD-his
T1 sequence (Q01973 30-406): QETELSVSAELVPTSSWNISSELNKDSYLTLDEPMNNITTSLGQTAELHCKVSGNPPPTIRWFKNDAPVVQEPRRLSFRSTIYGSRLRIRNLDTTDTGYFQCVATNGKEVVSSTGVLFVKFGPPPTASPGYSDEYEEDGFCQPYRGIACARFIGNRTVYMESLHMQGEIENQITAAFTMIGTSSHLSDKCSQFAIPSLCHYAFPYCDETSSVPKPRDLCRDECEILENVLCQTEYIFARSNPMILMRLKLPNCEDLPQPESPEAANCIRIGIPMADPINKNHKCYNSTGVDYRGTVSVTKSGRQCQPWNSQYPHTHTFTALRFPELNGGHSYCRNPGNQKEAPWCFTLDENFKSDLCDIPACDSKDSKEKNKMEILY
Assay: BLI in-tandem, row = 1st Ab; competitor (2nd Ab): PR005338
# Inhibition (%) per entry
READOUT LABEL: Inhibition (%)

1. PR005340 (antibody, human IgG1, V domains shown, HCAb (heavy chain-only, human IgG1 Fc), no light chain) VH: EVQLVESGGGLVKPGGSLRLSCAASGFTFSDYYMSWIRQAPGKGLEWISYISSSGSTIHYADSVKGRFTISRDNAKNSLYLQMNSLRAEDTAIYYCARDIPSSSSDWVSLQFDYWGQGTLVTVSS ... 106
2. PR005338 (antibody, human IgG1, V domains shown, HCAb (heavy chain-only, human IgG1 Fc), no light chain) VH: EVQLVESGGGLVKPGGSLRLSCAASGFTFSDYYMSWIRQAPGKGLEWISYISSSGTTIHYADSVKGRFTISRDNAKNSLYLQMNSLRTEDTAVYYCARDAPSSNSDWVSLQFDYWGQGTLVTVSS ... 104
3. PR007417 (antibody, V domains shown, bivalent form (HCAb) variant of PR005340, no light chain) VH: EVQLVESGGGLVKPGGSLRLSCAASGFTFSDFYMSWIRQAPGKGLEWISYISSSGSTRYYADSVKGRFTISRDNAKNSLYLQMNSLRAEDTAIYYCARDIPSSSSDWVDLQFDYWGQGTLVTVSS ... 114
4. PR000374 (antibody, human IgG1, kappa, V domains shown, positive control; also called Bench marker 1) VH: EVQLVESGGGLVQPGRSLRLSCTASGSDINDYPITWVRQAPGQGLEWIGFINSGGSTWYASWVKGRFTISRDDSKSIAYLQMNSLKTEDTAVYYCARGYSTYYRDFNIWGQGTLVTVSS VL: DIQMTQSPSSLSASVGDRVTINCQASQSIDSNLAWFQQKPGQPPKLLIYRASNLASGVPDRFSGSGSGTDFTLTISSLEAEDVATYYCLGGVGAVSYRTSFGGGTKVEIKR ... -7.76
5. PR007424 (antibody, V domains shown, bivalent form (HCAb) variant of PR005340, no light chain) VH: EVQLVESGGGLVKPGGSLRLSCAASGFTFSDYYMSWIRQAPGKGLEWISYIDSSGRPLAYADSVKGRFTISRDNAKNSLYLQMNSLRAEDTAIYYCARDMPSSSSDWVSLQFDYWGQGTLVTVSS ... 108
